Assay: Lipophilicity, logD of compound in octanol/water by shake flask method
Assay type: physicochemical
MEASURED PARAMETER: logD

Before answering, review these 4 worked examples.
{"COMPOUND SMILES": "CC(C)n1cnnc1-c1cccc(N2Cc3c(CO)cccc3C2=O)n1", "logD": 2.1}
{"COMPOUND SMILES": "CC[C@@H](N)c1nc(N2CCC[C@H]2C)cc2c1CN(c1cccc(-c3nncn3CC)n1)C2=O", "logD": 2.3}
{"COMPOUND SMILES": "CNCc1nc(N(C)C)cc2c1CN(c1cccc(-c3nncn3[C@@H](C)CC(F)(F)F)n1)C2=O", "logD": 1.3}
{"COMPOUND SMILES": "CNCc1cc(OC)cc2c1CN(c1cccc(-c3nncn3[C@@H](C)CC(F)(F)F)n1)C2=O", "logD": 1.6}

(I) CNCc1nc(N(C)C(C)C)cc2c1CN(c1cccc(-c3nnc4n3[C@@H](CF)CC4)n1)C2=O
(II) CC[C@@H](N)c1nc(N2CCC[C@H]2C)cc2c1CN(c1cccc(-c3nnc4n3[C@@H](C)CC4)n1)C2=O
(III) CNCc1nc(N(C)C)cc2c1CN(c1cccc(-c3nncn3C(C)C)n1)C2=O
**Query** Sort ascending by logD. # list labels per requested ordering
**Result** III, I, II
(III: 0.8, I: 1.6, II: 2.5)
